Measured values drawn from PubChem BioAssay (NCI) for this set.

System: MALME-3M melanoma
Experiment Notes: NCI tumour cell line growth inhibition, 48 h
Property Measured: log10(TGI) (log10 of the value in µM)
In plain terms, each number is the log10 of measured TGI in µM.

These recorded examples may help you get a feel for the data.
For `CCN(CC)CCCCNc1c2ccc(Cl)cc2nc2ccc(OC)cc12` the compound record lists log10(TGI) as 0.56

The reported value for `Nc1cccc2c1C(=O)c1cccc(NC(=O)c3ccccc3)c1C2=O` in terms of log10(TGI) is 0.85

Input `COc1ccc(C(=O)/C=C/SC(=NC#N)SC)cc1` . Output log10(TGI): 1.70

For `COc1cc2nccc(Oc3ccc(NC(=O)c4cn(C(C)C)c(=O)n(-c5ccc(F)cc5)c4=O)cc3F)c2cc1OC` the compound record lists log10(TGI) as 1.07

Continuing:
Recorded log10(TGI) (compound `COc1cc(CNc2oc(-c3ccccc3)c(-c3ccccc3)c2C#N)cc(CN2CCN(C)CC2)c1O` ): 0.53
